I'd appreciate it if you could supply IC50 values for the items below.
- TARGET_ENTITY: human α4β7 integrin (human), P13612
- TEST_DETAILS: inhibition of HUT 78 cell adhesion to murine MAdCAM-1/mCk
Ends that are not written are not given here.
Please state the value followed by its unit.

Known IC50 results, listed for orientation:
Ac-RGLDT (not fully specified (C-terminus); printed as Ac-Arg-Gly-Leu-Asp-Thr) [Ac-Arg-Gly-Leu-Asp-Thr] | 542 µM
LYTSL (modifications not checked) [Pba-Leu-Tyr-Thr-Ser-Leu] | 30 µM
Ac-LDTSF (not fully specified (C-terminus); printed as Ac-Leu-Asp-Thr-Ser-Phe) [Ac-Leu-Asp-Thr-Ser-Phe] | 144 µM
PLDTSL (modifications not checked) [Pba-Pro-Leu-Asp-Thr-Ser-Leu] | 47 µM
Ac-RGLDTSL (not fully specified (C-terminus); printed as Ac-Arg-Gly-Leu-Asp-Thr-Ser-Leu) [Ac-Arg-Gly-Leu-Asp-Thr-Ser-Leu] | 1580 µM

In the following, a different binder is considered.
# input Entry Ac-HWRGLDT (not fully specified (C-terminus); printed as Ac-His-Trp-Arg-Gly-Leu-Asp-Thr) [Ac-His-Trp-Arg-Gly-Leu-Asp-Thr] has what IC50?
# output 584 µM
